Recorded values, source the supplement of paper PMC8728848.

molecular target: Fuc(a1-3)[Gal(b1-4)]GlcNAc(b1-4)Gal(b1-4)[Fuc(a1-3)]GlcNAc(b1-4)Gal(b1-4)[Fuc(a1-3)]GlcNAc; experiment: glycan array binding signal (z-score within array); higher = stronger binding; details: glycan notation: IUPAC condensed, linker removed
The full list was thinned out, with the strongest signals kept by preference.
Listed binders paired with reported glycan array binding signal (z-score)
metric: glycan array binding signal (z-score)

INSERT INTO assay_data (binder, test_result) VALUES
  ('LEA (Lycopersicon esculentum) (protein) NEVFDVPMNETIGVESINASVGGYPRCGAQGDGGNCPSGMCCSVWGWCGKTYGYCAPQNCQKQCPAPYPEGRCGWQADGKSCPNGKCCSYGGWCGTTSDYCARQNCQKQCILPSPPPPPPPPPGFPRPECGLQKNGERCTKPGECCSIWGLCGATYKYCDPQHCQKQCSAPFPPGRCGWQADGRPCPTGQCCSFSGWCGTTSAHCTYPQCVSQCNDPRFPSSLNNRIQSFML', -0.541),
  ('CTMLA2 (Anopheles gambiae), Q7Q7F8 (protein) MNLMITILIAVITVVRGDLSVPKTVDDILQQNPCLCPCKPFEEKEYFIPISRTSDWFGAVAYCHSVGMELAEVLNEDEARAMGEVIAEEESDSDDEFYWIGANDLGVQGTYRWALAGRPVLYSQWAAGEPNHARGENGQQPAERCVAVAMDKYEWNDFQCTQQKPFICQQFRKH', -0.011);
